system: L1210 leukemia ip in BDF1 mice, survival T/C; assay: NCI In Vivo Anticancer Drug Screen. Data for tumor model L1210 Leukemia (intraperitoneal) in B6D2F1 (BDF1) mice; details: endpoint: mean survival time; dose: 50.0 mg/kg/injection; schedule: Q01DX001 (ip); vehicle: saline; higher = longer survival
Toxic doses and inconclusive results are not listed.
This listing pairs molecules with measured T/C.

[[record]]
molecule = "[O-][n+]1ccccc1CCl"
measured_parameter = "T/C"
measurement = "98 % of control"

[[record]]
molecule = "[N-]=[N+]=NC(c1ccccc1)C(I)c1ccccc1 (configuration not stated)"
measured_parameter = "T/C"
measurement = "103 % of control"

[[record]]
molecule = "CN(C)Cc1ccncc1"
measured_parameter = "T/C"
measurement = "101 % of control"


Need T/C, item CCC(C(=O)OC)C1CCN(C)C(=O)C12CO2 (configuration not stated)
104 % of control

Entry `CC1=CC(=O)C=CC1=Nc1cc(Cl)c(O)c(Cl)c1` : reported T/C = ?
101 % of control

Would you mind telling me what T/C value was observed for `O=C(CCCC(=O)N/N=C/c1cccc(I)c1)N/N=C\c1cccc(I)c1` ?
100 % of control

Can you share its T/C? I mean this molecule: NCC1C2CC3CC(C2)CC1C3 (configuration not stated)
93 % of control

// returns reported T/C for input CC(=O)OCC1C(OC(C)=O)C(OC(C)=O)C(OC(C)=O)N1C(C)=O (configuration not stated)
98 % of control

What does the data say about its T/C? Entry: `O=[N+]([O-])C=C([SH2+])[SH2+].O=[N+]([O-])C=C([SH2+])[SH2+].[Pt+2].c1ccc(C[P+](c2ccccc2)(c2ccccc2)c2ccccc2)cc1`
95 % of control

Which T/C is reported for this molecule? `CC(=O)NCCNC(C)=O`
102 % of control

Which value of T/C has been reported for `O=C(O)CCC(=O)Nc1ccccc1CC(c1c[nH]c2ccccc12)c1c[nH]c2ccccc12` in the records?
106 % of control

Param item = `Nc1ccc(CCCNc2c(N)nc(N)nc2-c2ccccc2)cc1` ; retrieve measured T/C.
100 % of control

----------
test system: L1210 leukemia ip in BDF1 mice, survival T/C; test: NCI In Vivo Anticancer Drug Screen. Data for tumor model L1210 Leukemia (intraperitoneal) in B6D2F1 (BDF1) mice; details: endpoint: mean survival time; dose: 200.0 mg/kg/injection; schedule: Q04DX003 (ip); vehicle: saline with Tween-80; higher = longer survival
Toxic doses and inconclusive results are not listed.
measured-parameter: T/C

[[record]]
compound = "O=C(CSc1cc(Cl)c(Cl)cc1Cl)Nc1cccc(Br)c1"
study_system = "L1210 leukemia ip in BDF1 mice, survival T/C"
measurement = "96 % of control"


Record request: T/C value, item `C=CCNC(=S)Nc1ccc(N(C)C)cc1`
95 % of control

T/C for CCOC(=O)C12CC=CC(CCC1)C2=O (configuration not stated) (tested in a mixture with another compound) ?
102 % of control

T/C for `C=C(C)c1c2ccccc2cc2cccc(Sc3ccccc3)c12` ?
96 % of control

What value of T/C has been reported for the following compound? CC(C)CCCC(C)C1CCC2C3CC(=O)NC45CC4CCC5(C)C3CCC12C (configuration not stated)
97 % of control

Bench note: what T/C did CN1CCN(C2=Cc3ccccc3C(O)C(Cc3ccccc3)=N2)CC1 (configuration not stated) show?
96 % of control

Fill in: T/C of `Cc1cc(C)cc(C(C)(C)C)c1` is ___
92 % of control

----------
Items are presented alongside their recorded T/C.
tested on: L1210 leukemia ip in BDF1 mice, survival T/C; assay: NCI In Vivo Anticancer Drug Screen. Data for tumor model L1210 Leukemia (intraperitoneal) in B6D2F1 (BDF1) mice; settings: endpoint: mean survival time; dose: 200.0 mg/kg/injection; schedule: Q04DX003 (ip); vehicle: saline; higher = longer survival
Inconclusive results and toxic doses are left out.

[[record]]
compound = "CNC(C)(C)CO"
measurement = "107 % of control"

[[record]]
compound = "Cc1ccc(O)cc1Cl"
measurement = "104 % of control"


Look up T/C: CCC(C)C(C)NC(C)=O (stereo not given)
113 % of control

Which T/C reading was recorded for the compound `CCCCC[C@@H](CN(C)C)[C@H](O)/C=C/c1ccc(Cl)cc1` ?
102 % of control

----------
test system: L1210 leukemia ip in BDF1 mice, survival T/C; experiment: NCI In Vivo Anticancer Drug Screen. Data for tumor model L1210 Leukemia (intraperitoneal) in B6D2F1 (BDF1) mice; conditions: endpoint: mean survival time; dose: 400.0 mg/kg/injection; schedule: Q01DX009 (ip); vehicle: saline; higher = longer survival
Toxic doses and inconclusive results are not listed.
measured-parameter: T/C

Past entries and their recorded results:
[[record]]
compound = "CCO/N=C(/N)N=C(N)N"
measurement = "97 % of control"

[[record]]
compound = "Cc1cnc(C(N)=O)c(=O)[nH]1"
measurement = "98 % of control"

[[record]]
compound = "Cc1ccc(N)cc1Br"
measurement = "103 % of control"


Field request: T/C | item: O=C(O)CC(NC(=O)OCc1ccccc1)C(=O)O (configuration not stated)
107 % of control

----------
test system: L1210 leukemia ip in BDF1 mice, survival T/C; assay: NCI In Vivo Anticancer Drug Screen. Data for tumor model L1210 Leukemia (intraperitoneal) in B6D2F1 (BDF1) mice; details: endpoint: mean survival time; dose: 200.0 mg/kg/injection; schedule: Q01DX009 (ip); vehicle: gum acacia; higher = longer survival
Inconclusive results and toxic doses are left out.
List of T/C values.

Sample records with T/C:
[[record]]
compound = "S=C1NC(c2cccs2)N2C(=S)NC(c3cccs3)N12 (centres undefined)"
study_system = "L1210 leukemia ip in BDF1 mice, survival T/C"
measurement = "91 % of control"

[[record]]
compound = "CCN(CC)c1ccc(/C=C/C=O)cc1"
study_system = "L1210 leukemia ip in BDF1 mice, survival T/C"
measurement = "91 % of control"

[[record]]
compound = "C/C(=N/NC(N)=O)C1CC2CCC1C2 (centres undefined)"
study_system = "L1210 leukemia ip in BDF1 mice, survival T/C"
measurement = "94 % of control"


Then this compound:
Any idea what its T/C is? The compound is `Cc1cc(Cc2cc(C)cc(C(C)(C)C)c2O)c(O)c(Cc2cc(C)cc(C(C)(C)C)c2O)c1`
96 % of control

----------
Collected T/C values appear next to each entry.
tested on: L1210 leukemia ip in BDF1 mice, survival T/C; experiment: NCI In Vivo Anticancer Drug Screen. Data for tumor model L1210 Leukemia (intraperitoneal) in B6D2F1 (BDF1) mice; details: endpoint: mean survival time; dose: 100.0 mg/kg/injection; schedule: Q01DX009 (ip); vehicle: saline; higher = longer survival
Toxic doses and inconclusive results are not listed.

What does the record list as T/C for `O=Cc1c[nH]c(=O)[nH]c1=O` ?
103 % of control

----------
tested on: L1210 leukemia ip in BDF1 mice, survival T/C; experiment: NCI In Vivo Anticancer Drug Screen. Data for tumor model L1210 Leukemia (intraperitoneal) in B6D2F1 (BDF1) mice; conditions: endpoint: mean survival time; dose: 40.0 mg/kg/injection; schedule: Q01DX001 (ip); vehicle: saline; higher = longer survival
Toxic doses and inconclusive results are not listed.
Consider the following molecules and their measured T/C readings.

For L1210 leukemia ip in BDF1 mice, survival T/C, provide T/C of `COc1ccc2nc3ccccc3c(NCCNCCO)c2c1` please.
97 % of control

Form: Entry = Nc1nc(=S)c2ncn(C3OCC(O)C(O)C3O)c2[nH]1 (stereo not given) | System = L1210 leukemia ip in BDF1 mice, survival T/C | T/C = ____
101 % of control

Could you share what T/C was measured for `[O-]/[N+](=C\c1ccc(/C=[N+](\[O-])c2ccccc2)cc1)c1ccccc1` , tested on L1210 leukemia ip in BDF1 mice, survival T/C?
92 % of control

GET /values?readout=T/C&system=L1210 leukemia ip in BDF1 mice, survival T/C&item= `O=[N+]([O-])c1ccc(/C(=C/c2ccccc2)[n+]2ccccc2)cc1`
100 % of control

Fill in the recorded T/C for this molecule, with L1210 leukemia ip in BDF1 mice, survival T/C as test system: CCCCCCC1CCCCN1 (stereo not given)
96 % of control

----------
system: L1210 leukemia ip in BDF1 mice, survival T/C; test: NCI In Vivo Anticancer Drug Screen. Data for tumor model L1210 Leukemia (intraperitoneal) in B6D2F1 (BDF1) mice; conditions: endpoint: mean survival time; dose: 100.0 mg/kg/injection; schedule: Q01DX001 (ip); vehicle: saline; higher = longer survival
Inconclusive results and toxic doses are left out.
measured-parameter: T/C

Guide cases for T/C, answers given:
[[record]]
compound = "CN(C)Cc1ccncc1"
measurement = "101 % of control"

[[record]]
compound = "Cn1cc2c(=O)n(O)c(=O)[nH]c2n1"
measurement = "100 % of control"

[[record]]
compound = "CCc1ccccc1N1CCN(C(=O)c2cc(OC)c(OC)c(OC)c2)CC1"
measurement = "100 % of control"

[[record]]
compound = "CN(C=O)c1cc([N+](=O)[O-])ccc1OCc1ccccc1"
measurement = "96 % of control"

[[record]]
compound = "N=C(N)SCCCCCSC(=N)N"
measurement = "124 % of control"


Please provide the recorded T/C for `CNC(C)=O` , tested on L1210 leukemia ip in BDF1 mice, survival T/C.
100 % of control

For L1210 leukemia ip in BDF1 mice, survival T/C, provide T/C of `Cc1ccc(NC(=O)OCCCl)cc1` please.
117 % of control

Give L1210 leukemia ip in BDF1 mice, survival T/C T/C for `Cc1cc(=O)n(-c2ccccc2)c2ccccc12`
103 % of control

# value lookup — system L1210 leukemia ip in BDF1 mice, survival T/C, readout T/C, item `CC1(C)Cc2cccc(C(=O)CCCN3CCCCC3)c2O1`
104 % of control

Query T/C on L1210 leukemia ip in BDF1 mice, survival T/C for `CCCCC#CCl`
101 % of control
